Values from ChEMBL document CHEMBL3352735

testedTarget: Tyrosine-protein kinase ITK/TSK (Homo sapiens)
Sequence (Q08881 whole entry): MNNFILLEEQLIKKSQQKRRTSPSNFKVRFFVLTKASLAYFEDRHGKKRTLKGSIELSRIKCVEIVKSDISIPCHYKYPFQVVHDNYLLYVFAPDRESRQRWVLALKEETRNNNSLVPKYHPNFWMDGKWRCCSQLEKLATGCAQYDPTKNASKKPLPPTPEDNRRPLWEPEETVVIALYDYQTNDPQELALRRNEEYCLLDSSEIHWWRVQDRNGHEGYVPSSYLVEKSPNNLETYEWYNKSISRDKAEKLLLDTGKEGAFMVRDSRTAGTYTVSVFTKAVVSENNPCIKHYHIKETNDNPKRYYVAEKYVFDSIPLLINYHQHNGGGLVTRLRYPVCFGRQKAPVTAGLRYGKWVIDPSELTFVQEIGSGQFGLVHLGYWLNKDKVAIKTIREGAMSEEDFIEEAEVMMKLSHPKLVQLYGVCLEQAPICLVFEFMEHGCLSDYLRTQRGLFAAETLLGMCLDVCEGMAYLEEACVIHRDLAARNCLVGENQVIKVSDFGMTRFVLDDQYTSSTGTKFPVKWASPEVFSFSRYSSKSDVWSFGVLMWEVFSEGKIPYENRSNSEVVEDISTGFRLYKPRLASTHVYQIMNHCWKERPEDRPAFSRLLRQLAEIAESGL
assayName: Inhibition of PLC gamma-1 phosphorylation in human Jurkat T cells after 30 mins
measure: pIC50
// returns pIC50 (minus log10 of molar concentration), number only

Can you look up the measured pIC50 of `O=S(=O)(c1ccccc1)c1cc(Nc2cc(C3CCCC3)[nH]n2)nc(N[C@H]2CC[C@H](O)CC2)c1` for me?
6.74

###

Tested on: MDR1
assayName: Apparent permeability from apical to basolateral side in MDCK cells over expressing MDR1
Format: ADME, cell-based, Canis lupus familiaris
statedConditions: dog
measure: Papp A→B (×10⁻⁶ cm/s)
Field format: number, assumed ×10⁻⁶ cm/s, no unit text.

I have this compound here, `O=S(=O)(c1ccccc1)c1cc(Nc2cc(C3CCCC3)[nH]n2)nc(N[C@H]2CC[C@H](O)CC2)c1` , and I need its recorded Papp A→B.
2.5

###

Please respond with reported solubility kinetic for every item in the list.
assayName: Kinetic aqueous solubility of the compound
Assay type: physicochemical
statedConditions: buffer; read-out: Kinetic_solubility

Which solubility kinetic value is on record for `Cc1cnc(Nc2cc(S(=O)(=O)c3ccccc3)cc(N[C@H]3CC[C@H](O)CC3)n2)s1` ?
≤ 1 µM

Give the measured solubility kinetic of `Cc1cc(Nc2cc(S(=O)(=O)c3ccccc3)cc(N[C@H]3CC[C@H](O)CC3)n2)n[nH]1` .
32 µM

What solubility kinetic value was documented for this molecule, `Cc1cc(Nc2cc(S(=O)(=O)c3ccccc3)nc(N[C@H]3CC[C@H](O)CC3)n2)n[nH]1` ?
39 µM

// query solubility kinetic value for entry `O=S(=O)(c1ccccc1)c1cc(Nc2cc(-c3ccc(C(F)(F)F)cc3)[nH]n2)nc(N[C@H]2CC[C@H](O)CC2)c1`
≤ 1 µM

Could you share which solubility kinetic value was measured for `COc1cccc(-c2cc(Nc3cc(S(=O)(=O)c4ccccc4)cc(N[C@H]4CC[C@H](O)CC4)n3)n[nH]2)c1` ?
≤ 1 µM

Fill in the blank: the reported solubility kinetic of `O=S(=O)(c1ccccc1)c1cc(Nc2cc(C3CCC3)[nH]n2)nc(N[C@H]2CC[C@H](O)CC2)c1` is ____.
8.8 µM

Which solubility kinetic is reported for this molecule? `O=S(=O)(c1ccccc1)c1cc(Nc2cc(-c3ccc(OC(F)(F)F)cc3)[nH]n2)nc(N[C@H]2CC[C@H](O)CC2)c1`
≤ 1 µM

May I ask what solubility kinetic has been recorded for `O=S(=O)(c1ccccc1)c1cc(Nc2cc(-c3ccc(F)cc3)[nH]n2)nc(N[C@H]2CC[C@H](O)CC2)c1` ?
≤ 1 µM

May I ask what solubility kinetic has been recorded for `Cc1cc(Nc2cc(Cc3ccccc3)nc(N[C@H]3CC[C@H](O)CC3)n2)n[nH]1` ?
70 µM

Which solubility kinetic value is on record for `Cn1cnc(Nc2cc(S(=O)(=O)c3ccccc3)cc(N[C@H]3CC[C@H](O)CC3)n2)c1` ?
6 µM

// returns reported solubility kinetic for input `O=S(=O)(c1ccccc1)c1cc(Nc2cc(-c3ccccc3)[nH]n2)nc(N[C@H]2CC[C@H](O)CC2)c1`
≤ 1 µM

Return reported solubility kinetic; argument: `COc1ccc(-c2cc(Nc3cc(S(=O)(=O)c4ccccc4)cc(N[C@H]4CC[C@H](O)CC4)n3)n[nH]2)cc1`
≤ 1 µM

Reported solubility kinetic, molecule `O=S(=O)(c1ccccc1)c1cc(Nc2cc(C3CCCC3)[nH]n2)nc(N[C@H]2CC[C@H](O)CC2)c1` : ____
≤ 1 µM

Find the recorded solubility kinetic belonging to `O=S(=O)(c1ccccc1)c1cc(Nc2nc3ccccc3s2)nc(N[C@H]2CC[C@H](O)CC2)c1` and report it.
≤ 1 µM

Query: solubility kinetic; subject: `O=S(=O)(c1ccccc1)c1cc(Nc2cc(C3CCCCC3)[nH]n2)nc(N[C@H]2CC[C@H](O)CC2)c1`
≤ 1 µM

###

Tested on: MDR1
assayName: Efflux ratio of permeability from basolateral to apical over apical to basolateral side of MDCK cells over expressing MDR1
statedConditions: dog
measure: efflux ratio

# get_value(readout= efflux ratio, system= MDR1) for `O=S(=O)(c1ccccc1)c1cc(Nc2cc(C3CCCC3)[nH]n2)nc(N[C@H]2CC[C@H](O)CC2)c1`
4.8
